System: clinical methicillin-resistant Staphylococcus aureus (MRSA) isolates
Test: MIC/MBC against clinical MRSA isolates
Conditions: MRSA / NRS123 / USA400
assay.readout: MBC

> print(dat)
                                   compound  assay.readout  recorded.result
1  CCCCCCCCCCc1ccc(NS(=O)(=O)c2ccc(O)c(C(=O)O)c2)cc1 [Compound 2f]            MBC            16 µM

input: Field request: MBC | item: O=C(O)c1cc(S(=O)(=O)Nc2ccc(CCC3CCCCC3)cc2)ccc1O [Compound 2l]
output: 16 µM

input: # input compound: CCCCCCCc1ccc(NS(=O)(=O)c2ccc(O)c(C(=O)O)c2)cc1 [Compound 2e] ; wanted: its MBC
output: 32 µM

input: Suppose we examine the compound CC(C)CCCCc1ccc(NS(=O)(=O)c2ccc(O)c(C(=O)O)c2)cc1 [Compound 2j] ; what MBC value has been reported?
output: 32 µM

====

Target: S. aureus HMGR (Staphylococcus aureus)
Sequence (Q9FD86 entry or part of it): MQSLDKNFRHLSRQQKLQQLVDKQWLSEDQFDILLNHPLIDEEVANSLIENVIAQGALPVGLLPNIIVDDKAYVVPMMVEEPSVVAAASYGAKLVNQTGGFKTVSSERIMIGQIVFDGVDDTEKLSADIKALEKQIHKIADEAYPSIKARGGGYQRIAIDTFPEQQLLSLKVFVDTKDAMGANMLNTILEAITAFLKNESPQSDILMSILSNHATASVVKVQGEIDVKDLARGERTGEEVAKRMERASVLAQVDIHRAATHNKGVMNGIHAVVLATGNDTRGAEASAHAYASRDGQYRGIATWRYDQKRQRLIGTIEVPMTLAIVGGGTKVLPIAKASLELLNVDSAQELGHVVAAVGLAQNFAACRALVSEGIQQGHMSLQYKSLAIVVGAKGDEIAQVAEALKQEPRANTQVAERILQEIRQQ
assay.readout: pIC50
Schema: pIC50 number; meaning minus log10 of the concentration expressed in molar units.

Sample answers from the record:
> print(dat)
                         structure.notation  assay.readout  recorded.result
1  CCCCCCc1ccc(NS(=O)(=O)c2ccc(O)c(C(=O)O)c2)cc1          pIC50             4.11
2  O=C(O)c1cc(S(=O)(=O)Nc2ccc(CCC3CCCCC3)cc2)ccc1O          pIC50             4.79
3  CCCCCc1ccc(NS(=O)(=O)c2ccc(O)c(C(=O)O)c2)cc1          pIC50             4.01
4  CCCCCCCc1ccc(NS(=O)(=O)c2ccc(O)c(C(=O)O)c2)cc1          pIC50             4.55
5  CCCCCCCCCCc1ccc(NS(=O)(=O)c2ccc(O)c(C(=O)O)c2)cc1          pIC50             5.14
6  CC(C)CCCc1ccc(NS(=O)(=O)c2ccc(O)c(C(=O)O)c2)cc1          pIC50             4.44
7  CC(C)CCCCc1ccc(NS(=O)(=O)c2ccc(O)c(C(=O)O)c2)cc1          pIC50             4.66
8  CCCCCCCCCCCCCCc1ccc(NS(=O)(=O)c2ccc(O)c(C(=O)O)c2)cc1          pIC50             5.72

input: What is its pIC50 for S. aureus HMGR (Staphylococcus aureus)? Entry: CCCCCCCCCCCCc1ccc(NS(=O)(=O)c2ccc(O)c(C(=O)O)c2)cc1
output: 5.23

input: Return pIC50 measured with S. aureus HMGR (Staphylococcus aureus) given this compound: CCCCc1ccc(NS(=O)(=O)c2ccc(O)c(C(=O)O)c2)cc1
output: 4.04

====

Test system: vancomycin intermediate Staphylococcus aureus (VISA) NRS1
Assay: MIC/MBC against clinical VISA isolate
assay.readout: MBC (µM)
API: value field is a number in µM; no unit string.

Please review the entries below; each comes with its answer.
> print(dat)
                                   compound  assay.readout  recorded.result
1  CC(C)CCCCc1ccc(NS(=O)(=O)c2ccc(O)c(C(=O)O)c2)cc1 [Compound 2j]            MBC               16
2  O=C(O)c1cc(S(=O)(=O)Nc2ccc(CCC3CCCCC3)cc2)ccc1O [Compound 2l]            MBC               16
3  CCCCCCCCCCc1ccc(NS(=O)(=O)c2ccc(O)c(C(=O)O)c2)cc1 [Compound 2f]            MBC                4

The record that follows has no MBC shown yet.
input: // lookup MBC | system=vancomycin intermediate Staphylococcus aureus (VISA) NRS1 | key= CCCCCCCc1ccc(NS(=O)(=O)c2ccc(O)c(C(=O)O)c2)cc1 [Compound 2e]
output: 16
